Biological target: VCPIP1 (UniProt Q96JH7)
Sequence (Q96JH7 whole entry, the tested form may be a part): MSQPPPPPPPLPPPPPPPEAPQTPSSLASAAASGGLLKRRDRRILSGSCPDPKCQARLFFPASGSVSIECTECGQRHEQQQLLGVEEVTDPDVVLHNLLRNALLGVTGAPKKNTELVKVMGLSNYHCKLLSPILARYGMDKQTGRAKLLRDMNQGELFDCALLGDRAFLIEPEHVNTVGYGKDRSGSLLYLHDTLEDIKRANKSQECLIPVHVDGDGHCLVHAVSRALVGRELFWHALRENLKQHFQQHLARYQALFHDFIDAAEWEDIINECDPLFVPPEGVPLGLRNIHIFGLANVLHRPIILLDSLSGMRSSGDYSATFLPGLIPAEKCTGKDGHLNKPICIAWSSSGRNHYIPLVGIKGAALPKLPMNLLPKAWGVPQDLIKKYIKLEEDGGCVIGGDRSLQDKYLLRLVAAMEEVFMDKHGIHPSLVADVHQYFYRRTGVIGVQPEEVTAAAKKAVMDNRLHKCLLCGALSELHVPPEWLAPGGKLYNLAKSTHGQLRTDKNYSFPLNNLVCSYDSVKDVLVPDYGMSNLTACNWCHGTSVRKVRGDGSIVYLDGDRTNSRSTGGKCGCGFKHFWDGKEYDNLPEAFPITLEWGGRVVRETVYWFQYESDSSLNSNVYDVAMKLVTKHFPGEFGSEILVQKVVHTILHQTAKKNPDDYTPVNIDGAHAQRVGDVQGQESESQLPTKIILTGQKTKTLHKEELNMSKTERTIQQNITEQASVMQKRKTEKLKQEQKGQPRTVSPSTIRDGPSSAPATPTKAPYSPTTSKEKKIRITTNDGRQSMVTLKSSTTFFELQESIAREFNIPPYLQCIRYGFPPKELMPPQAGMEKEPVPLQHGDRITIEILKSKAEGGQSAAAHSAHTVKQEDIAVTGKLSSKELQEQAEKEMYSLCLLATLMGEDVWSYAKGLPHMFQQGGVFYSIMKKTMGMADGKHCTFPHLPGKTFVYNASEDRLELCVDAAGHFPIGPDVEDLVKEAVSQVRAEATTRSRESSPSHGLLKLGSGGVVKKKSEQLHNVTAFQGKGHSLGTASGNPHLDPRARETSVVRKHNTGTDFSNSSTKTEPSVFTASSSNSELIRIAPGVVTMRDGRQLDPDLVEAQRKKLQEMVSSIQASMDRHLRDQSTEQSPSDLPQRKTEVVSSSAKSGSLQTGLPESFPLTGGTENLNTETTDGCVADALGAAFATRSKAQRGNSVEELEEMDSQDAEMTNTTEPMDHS
Test: log2 ratio of Biotin-Ahx-Ub-VS probe labelling (fragment/DMSO); higher = less target engagement (more negative = stronger competition), active = hit call of the paper (q ≤ 0.05, log2 ratio ≤ -1)
Settings: compound concentration: 200 uM; treatment time: 3 h
We begin with a simple list: items and their reported log2 ratio of Biotin-Ahx-Ub-VS probe labelling.
Could you respond with only the numeric value?

// known answers, use as guide
1. O=C(CCl)N1CCC(=C(F)CO)C1    -0.129
2. O=C(CCl)N1CCC(C(=O)N2CCCCCC2)CC1    -0.246
3. Cn1cc(CN(Cc2ccc(Cl)cc2)C(=O)CCl)cn1    -0.623
4. Cc1n[nH]c(=O)c2c(NC(=O)CCl)oc(C)c12    -0.15
5. Cc1ccccc1C1(CNC(=O)CCl)CCOCC1    -0.843

log2 ratio of Biotin-Ahx-Ub-VS probe labelling on VCPIP1 (UniProt Q96JH7) for Cc1ccccc1OCC(=O)N1CCN(C(=O)CCl)CC1 is -1.16

log2 ratio of Biotin-Ahx-Ub-VS probe labelling on VCPIP1 (UniProt Q96JH7) for Cc1ccc(C(=O)NCCNC(=O)CCl)cc1 is -2.4

log2 ratio of Biotin-Ahx-Ub-VS probe labelling on VCPIP1 (UniProt Q96JH7) for CN1c2ccccc2C(NC(=O)CCl)CS1(=O)=O (configuration not stated) is -2.14

log2 ratio of Biotin-Ahx-Ub-VS probe labelling on VCPIP1 (UniProt Q96JH7) for O=C(CCl)Nc1cccc2ncccc12 is -0.848

log2 ratio of Biotin-Ahx-Ub-VS probe labelling on VCPIP1 (UniProt Q96JH7) for Cc1ccc(C)c(Oc2ccc(CNC(=O)CCl)cn2)c1.Cl is -1.8

log2 ratio of Biotin-Ahx-Ub-VS probe labelling on VCPIP1 (UniProt Q96JH7) for CN1C(=O)c2ccc(NC(=O)CCl)cc2C1=O is -2.49

log2 ratio of Biotin-Ahx-Ub-VS probe labelling on VCPIP1 (UniProt Q96JH7) for Cc1cccc2nc(CCNC(=O)CCl)cn12.Cl is -1.77

----------
Biological target: OTUD5 (UniProt Q96G74)
Sequence (whole entry): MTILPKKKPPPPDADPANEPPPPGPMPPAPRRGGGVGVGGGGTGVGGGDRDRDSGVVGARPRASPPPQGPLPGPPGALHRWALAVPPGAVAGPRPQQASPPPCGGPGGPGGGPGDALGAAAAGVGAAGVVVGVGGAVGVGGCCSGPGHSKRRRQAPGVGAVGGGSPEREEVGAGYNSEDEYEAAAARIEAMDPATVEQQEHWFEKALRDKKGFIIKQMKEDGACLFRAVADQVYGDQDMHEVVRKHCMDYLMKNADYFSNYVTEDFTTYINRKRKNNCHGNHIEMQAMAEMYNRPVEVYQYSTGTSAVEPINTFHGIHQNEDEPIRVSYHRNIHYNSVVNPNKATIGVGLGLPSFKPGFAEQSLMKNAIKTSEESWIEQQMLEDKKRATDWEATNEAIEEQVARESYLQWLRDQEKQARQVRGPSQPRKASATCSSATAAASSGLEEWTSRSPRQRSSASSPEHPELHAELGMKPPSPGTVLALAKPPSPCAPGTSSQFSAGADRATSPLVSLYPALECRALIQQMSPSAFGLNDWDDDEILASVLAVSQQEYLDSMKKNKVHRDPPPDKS
Assay: log2 ratio of Biotin-Ahx-Ub-VS probe labelling (fragment/DMSO); higher = less target engagement (more negative = stronger competition), active = hit call of the paper (q ≤ 0.05, log2 ratio ≤ -1)
Details: compound concentration: 200 uM; treatment time: 3 h
Values of log2 ratio of Biotin-Ahx-Ub-VS probe labelling greater than or equal to -0.3 map to True; values below map to False.

Please review the entries below; each comes with its answer.
1. O=C(CCl)NC1CCCCNC1=O (centres undefined)    False
2. O=C(CCl)N1CCC2(CCC(O)CC2)CC1    True
3. O=C(CCl)Nc1cccc2ncccc12    False
4. Cc1cccc(N(CCC#N)C(=O)CCl)c1C    True
5. O=C(CCl)NCc1ccc(N2CCOCC2)c(F)c1    True
6. O=C(CCl)N1CCCC2CCCCC21 (centres undefined)    False

Q: Check this compound for log2 ratio of Biotin-Ahx-Ub-VS probe labelling at or above -0.3: Cl.O=C(CN1CCN(C(=O)CCl)CC1)Nc1ccc(F)cc1
Ans: True

Q: Check this compound for log2 ratio of Biotin-Ahx-Ub-VS probe labelling at or above -0.3: O=C(CCl)N1CCN(c2nc3ccccc3o2)CC1
Ans: False

Q: Check this compound for log2 ratio of Biotin-Ahx-Ub-VS probe labelling at or above -0.3: N#Cc1ccc(CNC(=O)CCl)cc1
Ans: False

----------
Molecular target: FAM105A (UniProt Q9NUU6)
Sequence (Q9NUU6 whole entry, the tested form may be a part): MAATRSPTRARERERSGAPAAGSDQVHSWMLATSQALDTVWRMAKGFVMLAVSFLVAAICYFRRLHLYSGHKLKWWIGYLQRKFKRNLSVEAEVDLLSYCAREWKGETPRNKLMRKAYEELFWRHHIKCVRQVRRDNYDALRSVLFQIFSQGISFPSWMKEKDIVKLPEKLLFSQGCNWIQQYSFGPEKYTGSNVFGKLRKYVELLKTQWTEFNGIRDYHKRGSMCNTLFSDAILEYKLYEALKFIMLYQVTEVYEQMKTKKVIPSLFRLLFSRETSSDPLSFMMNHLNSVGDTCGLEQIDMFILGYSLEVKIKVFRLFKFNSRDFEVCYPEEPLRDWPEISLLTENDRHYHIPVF
Test: log2 ratio of Biotin-Ahx-Ub-VS probe labelling (fragment/DMSO); higher = less target engagement (more negative = stronger competition), active = hit call of the paper (q ≤ 0.05, log2 ratio ≤ -1)
Settings: compound concentration: 200 uM; treatment time: 3 h
Readout kind: log2 ratio of Biotin-Ahx-Ub-VS probe labelling
Could you respond with only the numeric value?

1) O=C(CCl)N1CCC(c2nc3ccccc3o2)CC1    0.258
2) O=C(CCl)N1CC=C(c2c[nH]c3ccccc23)CC1    -0.087
3) O=C(CCl)NCc1ccc(N2CCOCC2)c(F)c1    0.388
4) Cc1cccn2cc(CCNC(=O)CCl)nc12.Cl    0.112
5) Cl.Cn1c(CNC(=O)CCl)nc2cccnc21    -0.0642

Moving on to another compound below.
log2 ratio of Biotin-Ahx-Ub-VS probe labelling on FAM105A (UniProt Q9NUU6) for O=C(CCl)NCC(=O)N1CCCC1 is -0.573

----------
We begin with a simple list: items and their reported log2 ratio of Biotin-Ahx-Ub-VS probe labelling.
Target: OTUD6B (UniProt Q8N6M0)
Sequence (Q8N6M0 whole entry, the tested form may be a part): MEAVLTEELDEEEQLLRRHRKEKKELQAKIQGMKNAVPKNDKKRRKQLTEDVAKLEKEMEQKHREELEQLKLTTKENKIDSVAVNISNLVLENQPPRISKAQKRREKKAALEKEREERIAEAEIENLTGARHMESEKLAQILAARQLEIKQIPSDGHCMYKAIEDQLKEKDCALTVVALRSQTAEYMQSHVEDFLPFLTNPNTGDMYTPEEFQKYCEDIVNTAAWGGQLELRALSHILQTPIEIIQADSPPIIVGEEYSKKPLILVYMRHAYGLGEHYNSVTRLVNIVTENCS
Assay: log2 ratio of Biotin-Ahx-Ub-VS probe labelling (fragment/DMSO); higher = less target engagement (more negative = stronger competition), active = hit call of the paper (q ≤ 0.05, log2 ratio ≤ -1)
Conditions: compound concentration: 200 uM; treatment time: 3 h
Could you respond with only the numeric value?

// known answers, use as guide
1) O=C(CCl)N1CCCC2CCCCC21 (configuration not stated)    0.111
2) CNC(=O)C1(NC(=O)CCl)CCCCC1    -0.206
3) Cc1cccc(NC(=O)[C@@H]2CCCN2C(=O)CCl)n1    -0.319
4) Cc1ccc(CN(C)C(=O)CCl)o1    0.0695
5) Cc1nc(CN2CCN(C(=O)CCl)CC2)cs1    -0.238

Sure, the documented log2 ratio of Biotin-Ahx-Ub-VS probe labelling for Cc1c(NC(=O)CCl)c(=O)n(-c2ccccc2)n1C is -0.0267

----------
We begin with a simple list: items and their reported log2 ratio of Biotin-Ahx-Ub-VS probe labelling.
Target: USP15 (UniProt Q9Y4E8)
Sequence (whole entry): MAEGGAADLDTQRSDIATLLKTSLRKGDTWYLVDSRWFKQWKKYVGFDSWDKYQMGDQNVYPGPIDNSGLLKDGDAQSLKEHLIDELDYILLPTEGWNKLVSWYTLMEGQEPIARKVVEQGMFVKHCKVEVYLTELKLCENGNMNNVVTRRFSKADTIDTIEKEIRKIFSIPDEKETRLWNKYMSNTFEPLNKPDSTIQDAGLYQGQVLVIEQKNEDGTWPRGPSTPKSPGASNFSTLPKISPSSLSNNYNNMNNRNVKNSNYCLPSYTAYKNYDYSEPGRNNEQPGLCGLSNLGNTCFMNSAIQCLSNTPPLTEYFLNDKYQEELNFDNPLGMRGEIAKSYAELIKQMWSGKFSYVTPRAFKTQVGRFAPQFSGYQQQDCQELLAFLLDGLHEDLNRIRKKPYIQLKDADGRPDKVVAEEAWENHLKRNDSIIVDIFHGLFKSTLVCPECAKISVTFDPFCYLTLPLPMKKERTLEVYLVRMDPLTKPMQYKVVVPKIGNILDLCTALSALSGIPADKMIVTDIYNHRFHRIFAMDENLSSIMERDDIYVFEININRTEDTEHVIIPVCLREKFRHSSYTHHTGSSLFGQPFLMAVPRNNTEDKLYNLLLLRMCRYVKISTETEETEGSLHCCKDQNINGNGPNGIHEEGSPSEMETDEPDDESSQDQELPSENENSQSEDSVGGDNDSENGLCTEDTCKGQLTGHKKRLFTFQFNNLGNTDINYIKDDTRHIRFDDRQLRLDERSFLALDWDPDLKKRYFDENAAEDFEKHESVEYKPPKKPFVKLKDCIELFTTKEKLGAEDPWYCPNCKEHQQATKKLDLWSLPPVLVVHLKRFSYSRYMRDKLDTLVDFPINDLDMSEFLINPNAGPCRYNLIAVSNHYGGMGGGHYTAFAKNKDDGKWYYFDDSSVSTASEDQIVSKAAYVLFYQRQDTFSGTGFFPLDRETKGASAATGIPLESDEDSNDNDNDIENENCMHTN
Test: log2 ratio of Biotin-Ahx-Ub-VS probe labelling (fragment/DMSO); higher = less target engagement (more negative = stronger competition), active = hit call of the paper (q ≤ 0.05, log2 ratio ≤ -1)
Conditions: compound concentration: 200 uM; treatment time: 3 h
Could you respond with only the numeric value?

// known answers, use as guide
1) Cc1cccn2cc(CCNC(=O)CCl)nc12.Cl    -0.191
2) COc1ccc(-c2csc(NC(=O)CCl)n2)cc1    -0.394

Sure, the documented log2 ratio of Biotin-Ahx-Ub-VS probe labelling for O=C(CCl)NC1CCC(C(F)(F)F)CC1 (stereo unspecified) is -0.158

Sure, the documented log2 ratio of Biotin-Ahx-Ub-VS probe labelling for CC(NC(=O)CCl)c1noc(Cc2ccccc2)n1 (stereo unspecified) is -0.331

Sure, the documented log2 ratio of Biotin-Ahx-Ub-VS probe labelling for Cl.O=C(CCl)NCc1cc2c(nc1O)CCCC2 is -0.148

Sure, the documented log2 ratio of Biotin-Ahx-Ub-VS probe labelling for Cc1cc(CC(C)NC(=O)CCl)n[nH]1 (stereo unspecified) is -0.325
